Kd listing for selected binders.
- system-tested: T1, biotinylated recombinant human FAP (human, UniProt Q12884 27-760, biotinylated)
- T1 construct: the Biacore paragraphs only say biotinylated (recombinant) human FAP; also called biotinylated human FAP; recombinant huFAP
- method-description: SPR (Biacore)

binder	unit-symbol	Kd
P1AE1702_Fab, humanized anti-FAP Fab VH2G2a/VL2G2a (Fab, V domains shown) VH: EVQLLESGGGLVQPGGSLRLSCAASGYTLTDYNMDWVRQAPGKGLEWVGDIYPNTGGTIYNQKFKGRFTISIDKSKNTAYLQMNSLRAEDTAVYYCTRFRGIHYAMDYWGQGTTVTVSS VL: DIQMTQSPSSLSASVGDRVTITCRASESVDNYGLSFINWFQQKPGQPPKLLIYGTSNRGSGVPSRFSGSGSGTDFTLTISSLQPEDFAMYFCQQSNEVPYTFGGGTKVEIK	nM	0.213
P1AE1690_Fab, humanized anti-FAP Fab VH1G2a/VL1G1a (Fab, V domains shown) VH: QVQLVQSGAEVKKPGASVKVSCKASGYTLTDYNMDWVRQAPGKSLEWIGDIYPNTGGTIYNQKFKGRVTMTIDKSTSTVYMELSSLRSEDTAVYYCTRFRGIHYAMDYWGQGTTVTVSS VL: EIVLTQSPATLSLSPGERATLSCRASESVDNYGLSFINWFQQKPGQAPRLLIYGTSNRGSGIPARFSGSGSGTDFTLTISSLEPEDFAVYFCQQSNEVPYTFGGGTKVEIK	nM	0.114
4B9_Fab (Fab, V domains shown, Fab; also called anti-FAP 4B9 Fab) VH: EVQLLESGGGLVQPGGSLRLSCAASGFTFSSYAMSWVRQAPGKGLEWVSAIIGSGASTYYADSVKGRFTISRDNSKNTLYLQMNSLRAEDTAVYYCAKGWFGGFNYWGQGTLVTVSS VL: EIVLTQSPGTLSLSPGERATLSCRASQSVTSSYLAWYQQKPGQAPRLLINVGSRRATGIPDRFSGSGSGTDFTLTISRLEPEDFAVYYCQQGIMLPPTFGQGTKVEIK	nM	0.279
P1AE1689_Fab, humanized anti-FAP Fab VH1G1a/VL1G1a (Fab, V domains shown, also called FAP antibody 1G1a; H212) VH: QVQLVQSGAEVKKPGASVKVSCKASGYTLTDYNMDWVRQAPGQGLEWIGDIYPNTGGTIYNQKFKGRVTMTIDTSTSTVYMELSSLRSEDTAVYYCTRFRGIHYAMDYWGQGTTVTVSS VL: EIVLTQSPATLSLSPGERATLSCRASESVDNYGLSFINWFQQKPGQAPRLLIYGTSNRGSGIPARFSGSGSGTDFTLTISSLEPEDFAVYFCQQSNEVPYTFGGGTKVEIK	nM	0.095
P1AE1693_Fab, humanized anti-FAP Fab VH1G2a/VL1G2a (Fab, V domains shown) VH: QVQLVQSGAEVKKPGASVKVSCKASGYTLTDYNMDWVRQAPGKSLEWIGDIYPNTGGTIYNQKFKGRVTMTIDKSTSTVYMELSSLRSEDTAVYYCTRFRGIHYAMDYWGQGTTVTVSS VL: EIVLTQSPATLSLSPGERATLSCRASESVDNYGLSFINWFQQKPGQPPRLLIYGTSNRGSGIPARFSGSGSGTDFTLTISSLEPEDFAVYFCQQSNEVPYTFGGGTKVEIK	nM	0.135
